So I've got a bunch of binders here, and I need their EC50 values.
- assay_system: T1, human PD-1 expressed on cells (human, UniProt Q15116 25-288)
- T1 construct: whole, on cells; also called HuT78/PD-1; NK92MI/PD-1
- T1 sequence (Q15116 25-288): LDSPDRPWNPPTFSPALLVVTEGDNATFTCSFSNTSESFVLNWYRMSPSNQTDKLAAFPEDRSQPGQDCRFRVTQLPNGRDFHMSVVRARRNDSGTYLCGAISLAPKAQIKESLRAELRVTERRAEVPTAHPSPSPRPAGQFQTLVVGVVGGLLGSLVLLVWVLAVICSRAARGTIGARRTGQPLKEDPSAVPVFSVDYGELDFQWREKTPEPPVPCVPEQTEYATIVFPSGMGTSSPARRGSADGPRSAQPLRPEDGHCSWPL
- measurement_notes: FACS on PD-1-expressing cells
Unit µg/mL implied. Number only.

Task: Need EC50, item ch326 (antibody, human IgG2, V domains shown, not shown: a dimerising Fc or GST, domain: Ig kappa C-region; Murine VH and Vκ of mu326 on human IgG2 / kappa) VH: QIQLVQSGPELKKPGETVKISCKASGYTFTNYGMNWVKQAPGKGLKWMGWINNNNGEPTYAEEFKGRFAFSLETSASTAYLQINNLKNEDTATYFCARDVMDYWGQGTSVTVSS VL: DIVLTQSPASLAVSLGQRATISCRASESVDNYGYSFMHWYQQKPGQPPQLLIYRASNLESGIPARFSGSGSRTGFTLTINPVEADDVATYYCQQSKEYPTFGGGTKLEVKR
Result: 0.118

Task: Record: hu326-2 A16E (antibody, V domains shown, mAb; constant regions not restated (hu326-1 is IgG2 / kappa); Back mutation to murine) VH: QVQLVQSGSELKKPGESVKVSCKASGYTFTNYGMNWVRQAPGQGLEWMGWINNNNGEPTYAQGFRGRFVFSLDTSASTAYLQISSLKTEDTAVYFCARDVMDYWGQGTTVTVSS VL: DIVLTQSPASLAVSPGQRATITCRASESVDNYGYSFMHWYQQKPGQPPKLLIYRASNLESGVPARFSGSGSRTDFTLTINPVEANDTANYYCQQSKEYPTFGGGTKVEIK
Result: 0.155

Task: Record: hu326-2 T88N (antibody, V domains shown, mAb; constant regions not restated (hu326-1 is IgG2 / kappa); Back mutation to murine) VH: QVQLVQSGSELKKPGASVKVSCKASGYTFTNYGMNWVRQAPGQGLEWMGWINNNNGEPTYAQGFRGRFVFSLDTSASTAYLQISSLKNEDTAVYFCARDVMDYWGQGTTVTVSS VL: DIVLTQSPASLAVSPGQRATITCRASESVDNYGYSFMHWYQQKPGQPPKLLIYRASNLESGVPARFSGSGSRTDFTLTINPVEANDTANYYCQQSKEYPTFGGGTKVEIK
Result: 0.098
